TARGET UNDER TEST: NAD-dependent protein deacylase sirtuin-5, mitochondrial (Homo sapiens)
PROTOCOL TEXT: blockers of sirtuin-5 peptide desuccinylation – biochemical, fluorescence imaging, cherry-pick, set 6, dose response (AID 720597);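 also: lower AMC signal can also come from blocking the trypsin step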
MEASUREMENT PARAMETERS: Purified SirT5, succinyl-peptide-AMC/trypsin fluorescence; series mostly up to 15 µM
Entries with a potency or affinity are not part of this list. Active and inactive are the calls of the source.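 The calls were made as follows: active = fitted half-maximal dose no more than twice the top valid tested dose, for compounds that lower signal; inconclusive = fit invalid, or curve flat with activity between -70 and -30; inactive = potency past limit, curve flat within ±30, or signal increasing.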

>  <SMI>
Cc1ccc(S(=O)(=O)N(C)C[C@@H]2OCCCC[C@@H](C)Oc3ccc(NS(=O)(=O)c4ccc(F)cc4)cc3C(=O)N([C@@H](C)CO)C[C@@H]2C)cc1

>  <outcome>
inactive

$$$$
>  <SMI>
C[C@H]1CN([C@@H](C)CO)C(=O)c2cc(NC(=O)CCN3CCOCC3)ccc2O[C@H]1CN(C)C(=O)Nc1ccc2c(c1)OCO2

>  <outcome>
inactive

$$$$
>  <SMI>
COc1ccc(NC(=O)N(C)C[C@@H]2Oc3cc(C#CCC(C)C)ccc3S(=O)(=O)N([C@H](C)CO)C[C@H]2C)cc1

>  <outcome>
inactive

$$$$
>  <SMI>
C[C@@H]1CN([C@H](C)CO)S(=O)(=O)c2ccc(C#CC3CC3)cc2O[C@@H]1CN(C)Cc1ccccc1F

>  <outcome>
inactive

$$$$

----------
TARGET UNDER TEST: NAD-dependent protein deacylase sirtuin-5, mitochondrial (Homo sapiens)
PROTOCOL TEXT: blockers of sirtuin-5 peptide desuccinylation – biochemical, fluorescence imaging, cherry-pick, set 6, dose response (AID 720597);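 also: lower AMC signal can also come from blocking the trypsin step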
MEASUREMENT PARAMETERS: Purified SirT5, succinyl-peptide-AMC/trypsin fluorescence; series mostly up to 15 µM
Results with a measured potency or affinity are listed apart. The source made the active and inactive calls.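 Rule for the calls: active = fitted half-maximal dose no more than twice the top valid tested dose, for compounds that lower signal; inconclusive = fit invalid, or curve flat with activity between -70 and -30; inactive = potency past limit, curve flat within ±30, or signal increasing.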

>  <SMI>
CNC[C@H]1Oc2ccc(NC(=O)Nc3ccc(F)cc3)cc2CC(=O)N([C@H](C)CO)C[C@H]1C

>  <TARGET UNDER TEST>
NAD-dependent protein deacylase sirtuin-5, mitochondrial (Homo sapiens)

>  <outcome>
inactive

$$$$
>  <SMI>
COc1ccc(S(=O)(=O)Nc2ccc3c(c2)C(=O)N([C@H](C)CO)C[C@@H](C)[C@H](CN(C)S(=O)(=O)c2ccc(Cl)cc2)OCCCC[C@H](C)O3)cc1

>  <TARGET UNDER TEST>
NAD-dependent protein deacylase sirtuin-5, mitochondrial (Homo sapiens)

>  <outcome>
inactive

$$$$
>  <SMI>
COCCOC(=O)N1C(=O)[C@@]2(c3cc(C#CCCO)ccc31)[C@H](c1ccccc1OCCO)N1[C@H](c3ccccc3)[C@H](c3ccccc3)OC(=O)[C@H]1[C@@H]2C(=O)N1CCN(c2ncccn2)CC1

>  <TARGET UNDER TEST>
NAD-dependent protein deacylase sirtuin-5, mitochondrial (Homo sapiens)

>  <outcome>
inactive

$$$$
>  <SMI>
C[C@H](CO)N1C[C@H](C)[C@H](CN(C)Cc2cccc(F)c2)Oc2ncc(C#C[C@@H](C)O)cc2C1=O

>  <TARGET UNDER TEST>
NAD-dependent protein deacylase sirtuin-5, mitochondrial (Homo sapiens)

>  <outcome>
inactive

$$$$
>  <SMI>
Cc1ccc(S(=O)(=O)Nc2ccc3c(c2)C(=O)N([C@@H](C)CO)C[C@@H](C)[C@H](CN(C)Cc2ccc(C(F)(F)F)cc2)OCCCC[C@@H](C)O3)cc1

>  <TARGET UNDER TEST>
NAD-dependent protein deacylase sirtuin-5, mitochondrial (Homo sapiens)

>  <outcome>
inactive

$$$$
>  <SMI>
C[C@H]1CCCCO[C@H](CN(C)S(=O)(=O)c2ccc(Cl)cc2)[C@@H](C)CN([C@@H](C)CO)C(=O)c2cc(NS(=O)(=O)c3ccccc3)ccc2O1

>  <TARGET UNDER TEST>
NAD-dependent protein deacylase sirtuin-5, mitochondrial (Homo sapiens)

>  <outcome>
inactive

$$$$
